# EXPERIMENTAL_CONTEXT: buffer; pH 7.4; 200.0 µM
Please provide measured solubility kinetic for the entries that follow.

Some molecules with known solubility kinetic results, for comparison:
Exercise: State the recorded solubility kinetic for this entry: `CNC(=O)c1cc(C(=O)c2ccccc2Br)c[nH]1`
Key: > 46.1 µg/mL

Exercise: Form field: reported solubility kinetic of `C/C(=N\NC(=O)CCC(=O)NCc1ccccc1)c1ccco1`
Key: > 47 µg/mL

Exercise: Report solubility kinetic for CCOc1ccc(C(C)NC(=S)NCc2ccc(F)cc2)cc1 (configuration not stated) please.
Key: 2.8 µg/mL

Exercise: I would be grateful if you could share the reported solubility kinetic for `FC(F)(F)c1nc(=S)c2ccccc2[nH]1` .
Key: 34.5 µg/mL

Exercise: Entry `COc1ccc(Cl)cc1NC(=O)COC(=O)C1CC1` : reported solubility kinetic = ?
Key: 34.4 µg/mL

Exercise: Consider the molecule `N/C(=N\OC(=O)COc1ccccc1)c1ccncc1` and give its measured solubility kinetic.
Key: > 40.7 µg/mL

Exercise: Which solubility kinetic is listed for `CC(=O)c1cn(Cc2ccccc2F)c2ccccc12` ?
Key: < 0.6 µg/mL

Exercise: Param item = CC1CCCCN1S(=O)(=O)c1cccc2nonc12 (configuration not stated) ; retrieve measured solubility kinetic.
Key: 39.6 µg/mL

Would you be so kind as to report solubility kinetic for each listed record?
1. O=C(CSCc1ccc(Cl)cc1)Nc1ccc(O)cc1C(=O)O
2. CN1C(=O)C(=O)/C(=C(/O)c2ccccc2)C1c1ccccc1 (configuration not stated)
3. CCCOc1ccc(NC(=O)c2cc3cc(C)ccc3[nH]2)cc1

Key:
> 52.8 µg/mL
> 44 µg/mL
< 0.3 µg/mL

Exercise: Consider the molecule shown here: CC(=O)Nc1ccc(S(=O)(=O)NC2CC3CCC2C3)cc1 (configuration not stated) What is its recorded solubility kinetic?
Key: > 46.3 µg/mL

###

# EXPERIMENTAL_CONTEXT: buffer; pH 7.4; 200.0 µM
Can you tell me solubility kinetic for the items I'm about to list?
Numbers only, in µg/mL.

Exercise: For the compound shown here, `Cc1ccc(S(=O)(=O)N2CCOCC2)cc1NCC(=O)Nc1ccc(OC(F)(F)F)cc1` , give the reported solubility kinetic.
Key: 3

Exercise: Bench note: what solubility kinetic did `CN1C(=O)[C@H](Cc2ccc([N+](=O)[O-])cc2)NC1=S` show?
Key: 28.1

Exercise: Reported solubility kinetic, compound `Cc1c(C(=O)N2CCC2)oc2ccc(Cl)cc12` : ____
Key: 15.6

Exercise: Can you look up the measured solubility kinetic of `COCCCNC(=S)Nc1ccc(OC(F)F)cc1C` for me?
Key: 45.1

Exercise: What does the data say about its solubility kinetic? Entry: `O=S(=O)(c1ccc(-c2ccccc2)cc1)N1CCCC1`
Key: 3

Exercise: solubility kinetic for `Nc1cc(=O)[nH]c(SCc2ccccc2Cl)n1` ?
Key: 6.9

Proceeding to the next compound to report its solubility kinetic.
Exercise: # solubility kinetic lookup, item CCOc1ccccc1C1NC(=O)c2ccccc2O1 (configuration not stated)
Key: 35.2

###

# EXPERIMENTAL_CONTEXT: buffer; pH 7.4; 200.0 µM
QUANTITY: solubility kinetic

Examples with their reported solubility kinetic follow.
Exercise: Which measured solubility kinetic value corresponds to `Cc1ccc(NC(=S)Nc2ccccn2)cc1C` ?
Key: 0.4 µg/mL

Exercise: Look at this compound and give its reported solubility kinetic. Cc1ccc(NC(=O)C2CC(=O)N(C(C)C)C2)cc1Cl (configuration not stated)
Key: > 44.2 µg/mL

Exercise: I am curious: what solubility kinetic value has been reported for `CC(=O)N1CCN(C(=O)CNC(=O)c2cccs2)CC1` ?
Key: > 44.3 µg/mL

Count: 4. Required value per item: solubility kinetic.
1. Cc1cc(NC(=O)CSc2c[nH]c3ccccc23)no1
2. CCOP(=O)(OCC)C(Nc1ccc(C(=O)O)cc1)c1ccccc1 (configuration not stated)
3. Nc1ccc2nc(-c3ccccc3)cnc2c1
4. CCOc1cccc(/C=C/c2ccc3cccc(O)c3n2)c1O

Key:
["> 43.1 µg/mL", "> 54.5 µg/mL", "26.6 µg/mL", "< 0.7 µg/mL"]

For the 4 compounds below, give their solubility kinetic values.
1. O=C(COC(=O)c1ccccc1O)NC(c1ccccc1)c1ccccc1
2. O=C(COC(=O)c1ccc(F)cc1)NCC1COc2ccccc2O1 (configuration not stated)
3. N#C/C(=C\Nc1ccc(Cl)cn1)S(=O)(=O)c1ccccc1
4. O=c1cc(-c2ccc(Cl)cc2)oc(=O)[nH]1

Key:
1: 5.9 µg/mL; 2: > 51.8 µg/mL; 3: < 0.2 µg/mL; 4: > 33.5 µg/mL

Exercise: If you can, please state the reported solubility kinetic value of `COc1ccc(C(=O)NCCc2ccccc2)cc1OC` .
Key: 40.1 µg/mL

###

# EXPERIMENTAL_CONTEXT: buffer; pH 7.4; 200.0 µM
QUANTITY: solubility kinetic (µg/mL)
Answers are plain numbers, in µg/mL.

Some solved cases for reference:
Exercise: If you can, please state the reported solubility kinetic value of COc1ccc(CC2CC(=O)N(c3ccc(C)cc3)C2=O)cc1 (stereo unspecified) .
Key: 4.4

Exercise: Name the recorded solubility kinetic for `CSc1nc(C)c(C(=O)C[n+]2ccc(C)cc2)cc1C#N.[Br-]` .
Key: 50

Exercise: Fill in the blank: the reported solubility kinetic of CC(NCc1ccccc1Cl)C(=O)Nc1ccc(C#N)cc1 (stereo unspecified) is ____.
Key: 44.5

Batch: solubility kinetic for all items listed.
1. Cc1ccc(CNC(=O)Cc2cn(C)c3ccccc23)cc1
2. Fc1ccc(OCCOCCN2CCNCC2)cc1.O=C(O)C(=O)O

Key:
1: 2.2; 2: 51

###

Please provide measured solubility kinetic for the entries that follow.
# EXPERIMENTAL_CONTEXT: buffer; pH 7.4; 200.0 µM
Give bare numbers, in µg/mL.

Some compounds with known solubility kinetic results, for comparison:
Exercise: Please report the recorded solubility kinetic for `CC(=O)Nc1ccc(S(=O)(=O)N(C)c2ccc(OCCOc3cccc(C)c3)cc2)cc1` .
Key: 5

Exercise: Quick one: solubility kinetic of COc1cccc(NC(=S)N2c3ccccc3CC2C)c1 (stereo unspecified) ?
Key: 20.3

Exercise: Any idea what its solubility kinetic is? The compound is `CCCn1c(C(=O)c2ccc(OC)cc2)nc2ccccc21`
Key: 1.7

Okay, now this compound:
Exercise: // query solubility kinetic value for entry `COc1ccc(NC(=O)c2ccc(-c3ccc([N+](=O)[O-])cc3)o2)cc1`
Key: 1.2

###

# EXPERIMENTAL_CONTEXT: buffer; pH 7.4; 200.0 µM
QUANTITY: solubility kinetic (µg/mL)
One number for each entry, in µg/mL.

Some solved entries appear below for comparison.
Exercise: Please look up its solubility kinetic: `COc1ccc(C(=O)NCCc2c[nH]c3ccccc23)cc1OC`
Key: 32

Exercise: What solubility kinetic value was documented for this molecule, `CCN(CC(=O)Nc1ccc(NC(C)=O)cc1)S(=O)(=O)/C=C/c1ccccc1` ?
Key: 9.6

Attention now shifts to the item below.
Exercise: Query: solubility kinetic; subject: CCC(=Nc1ccccc1O)C1=C(O)CC(c2ccccc2)CC1=O (stereo unspecified)
Key: 39.7

###

# EXPERIMENTAL_CONTEXT: buffer; pH 7.4; 200.0 µM
QUANTITY: solubility kinetic (µg/mL)
Give bare numbers, in µg/mL.

For each of the compounds below, state solubility kinetic.
1. CCOc1nc(C)cc(C)c1S(=O)(=O)c1cccc(Cl)c1
2. CC(=O)c1cccc(NC(=O)c2ccc3c(c2)CCCC3)c1
3. Cc1ccc(NS(=O)(=O)c2cccc3nsnc23)cc1[N+](=O)[O-]
4. Cc1cccc(Nc2nc(N)c([N+](=O)[O-])c(NCc3ccccc3)n2)c1

Key:
1. 6.2
2. 0.8
3. 50.2
4. 0.7

###

# EXPERIMENTAL_CONTEXT: buffer; pH 7.4; 200.0 µM
Parameter threshold = 40 µg/mL. Response is 1 (yes) when solubility kinetic meets or exceeds it, else 0 (no).

Consider the worked cases shown below.
Exercise: Determine whether measured solubility kinetic meets or exceeds 40 µg/mL for `CCC(=O)OCC(=O)N=c1sccn1Cc1ccc(C)cc1`
Key: 0 (no)

Exercise: Answer whether solubility kinetic of `O=C(CSc1ncccn1)N1CCC(Cc2ccccc2)CC1` is greater than or equal to 40 µg/mL.
Key: 1 (yes)

Exercise: Could you tell me if the measured solubility kinetic of `CCOC(=O)C(=CNc1nc2ccc(C(=O)OCC)cc2s1)C(=O)OCC` reaches 40 µg/mL or more?
Key: 0 (no)

---
Exercise: State whether the measured solubility kinetic reaches 40 µg/mL, counting equality as reaching it, for `COc1ccc(S(=O)(=O)N(C)CC(=O)N2CCCCCC2)cc1`
Key: 1 (yes)

Exercise: Exam item: decide whether the reported solubility kinetic for `Cc1ccc(F)cc1S(=O)(=O)NCc1ccc(N2CCN(C)CC2)cc1` is at least 40 µg/mL.
Key: 0 (no)

Exercise: Does the reported solubility kinetic for CCc1sc(C(=O)NC(C)C2CCCO2)cc1Br (stereo unspecified) fall at or above the 40 µg/mL mark?
Key: 1 (yes)

Exercise: Reported solubility kinetic at or above 40 µg/mL? `C=CCn1c(CCNC(=O)c2ccco2)nc2ccccc21`
Key: 1 (yes)

Exercise: Please indicate if the recorded solubility kinetic for `CN(C)/C=C/C(=O)c1cccc(Oc2ncccn2)c1` meets or exceeds 40 µg/mL.
Key: 1 (yes)

Exercise: Check if solubility kinetic >= 40 µg/mL (inclusive). Item: `O=C(Nc1ccc2c(c1)OCCO2)c1ccoc1`
Key: 0 (no)

Exercise: Decide: solubility kinetic of `CCOc1nc(Nc2ccccc2)nc(OCC)n1` >= 40 µg/mL?
Key: 0 (no)

Exercise: For this molecule, is measured solubility kinetic 40 µg/mL or higher? `CN(C(=O)c1ccccc1-c1ccccc1C(=O)O)c1ccccc1`
Key: 1 (yes)

Exercise: Can CC(CCN1CCOCC1)c1ccccc1 (stereo unspecified) be said to have solubility kinetic at or above 40 µg/mL?
Key: 0 (no)

Exercise: Can O=C(/C=C/c1ccc(Cl)cc1)NC1CCS(=O)(=O)C1 (stereo unspecified) be said to have solubility kinetic at or above 40 µg/mL?
Key: 1 (yes)

Exercise: Tell me whether solubility kinetic is at least 40 µg/mL here: `COc1ccc(CCNC(=O)c2coc3ccccc3c2=O)cc1`
Key: 0 (no)

Exercise: Kindly determine if solubility kinetic recorded for `COc1ccc(-c2csc3ncnc(NCCCO)c23)cc1` is above or exactly 40 µg/mL.
Key: 1 (yes)

Exercise: Please check the record O=C(NCc1cccc(F)c1)C1CCC(=O)N(C2CC2)C1 (stereo unspecified) and state if its solubility kinetic is at or above 40 µg/mL.
Key: 1 (yes)

Exercise: Quick check: does `COc1ccc(NC(=S)NC(=O)c2ccc3c(c2)OCCO3)cc1` have solubility kinetic greater than or equal to 40 µg/mL?
Key: 0 (no)

These measurements were taken from PubChem BioAssay AID1996.
